FYI, the data here is from ChEMBL document CHEMBL4828765.

- SYSTEM TESTED: Tyrosine-protein kinase Mer (Homo sapiens)
- ASSAY: Binding affinity to MERTK (571 to 864 residue) (unknown origin) expressed in Escherichia coli Rosetta cells assessed as change in melting temperature by SYPRO orange dye based DSF assay
MEASUREMENT LABEL: deltaTm (K)
Answers are plain numbers, in K.

The following molecules have reported results that may help.
- SMILES STRUCTURE: "COc1ccc(OC)c(CNc2ncc(C(=O)NCCCN3CCCC3=O)c(NC3CCCC3)n2)c1"
  deltaTm, K: -0.5
- SMILES STRUCTURE: "Cc1ccc(CNc2ncc(C(=O)NCCCN3CCOC3=O)c(NC3CCCCC3)n2)c(Br)c1"
  deltaTm, K: 0.7
- SMILES STRUCTURE: "O=C(NCCCN1CCOC1=O)c1cnc(NCc2cc(Cl)ccc2Cl)nc1NC1CCCC1"
  deltaTm, K: -0.2
- SMILES STRUCTURE: "O=C(NCCCN1CCCC1=O)c1cnc(NCc2cc(Cl)ccc2Cl)nc1NC1CCCCC1"
  deltaTm, K: -0.2
- SMILES STRUCTURE: "O=C(NCCCN1CCCC1=O)c1cnc(NCc2cc(Cl)ccc2Cl)nc1Nc1ccccc1"
  deltaTm, K: -0.7
- SMILES STRUCTURE: "O=C(NCCCN1CCCC1=O)c1cnc(NCc2ccccc2)nc1NC1CCCC1"
  deltaTm, K: 0.5
- SMILES STRUCTURE: "CN[C@@H]1C[C@H]2O[C@@](C)([C@@H]1OC)n1c3ccccc3c3c4c(c5c6ccccc6n2c5c31)C(=O)NC4"
  deltaTm, K: 4.8

Let us move to another entry and its deltaTm.
// query Reported deltaTm for "O=C(NCCCN1CCCC1=O)c1cnc(NCc2cc(Br)ccc2Br)nc1NC1CCCC1" : what is it?
// result -0.7
